- Assayed System: Bile acid receptor (Homo sapiens)
- Assay Info: qHTS assay to identify small molecule agonists of the farnesoid-X-receptor (FXR) signaling pathway (AID 743220); further: on the % scale 0 is the no-effect control and ±100 the full control effect
- Experimental Context: HEK293T FXR-UAS-bla, beta-lactamase FRET ratio, 16 h; series mostly up to 62.6 µM
Inconclusive results are not listed. Calls of active or inactive are those of the source. The call rests on the fitted dose curve; in most records, active means well fitted activation curve with a large enough effect in the signal ratio in the repeat runs (not every such curve was filed as active); inconclusive means weak or mixed curves, or effect the other way; inactive means flat fitted curve, though single readings scatter; the % refers to the signal ratio.
Experimental Endpoint: activation

molecule="CC(CN)CC(C)(C)CCN (stereo not drawn)" measured_value=inactive
molecule=Cc1nc2n(c(=O)c1CCN1CCC(c3noc4cc(F)ccc34)CC1)CCC[C@H]2O measured_value=inactive
molecule=O=C1c2ccccc2C(=O)N1CCl measured_value=inactive

* * *

- Assay Info: A CellTox Green Cytotoxicity Assay to monitor cytotoxicity in HepG2 cells - 8 hour (AID 1224890); further: on the % scale 0 is the no-effect control and ±100 the full control effect; nearly all actives have a fitted effect of over 45% in size
- Experimental Context: CellTox Green fluorescence; series mostly up to 76.8 µM
Results filed as inconclusive are left out. Calls of active or inactive are those of the source. The call rests on the fitted dose curve; in most records, active means well fitted activation curve with a large enough effect in the repeat runs; inconclusive means weak or mixed curves; inactive means flat fitted curve, though single readings scatter.
Experimental Endpoint: cytotoxicity increase

compound="CCCOC(=O)C(C)O (configuration not stated)" experimental_endpoint="cytotoxicity increase" measured_value=inactive
compound=O=C(O)c1cc(Br)c(O)c(Br)c1 experimental_endpoint="cytotoxicity increase" measured_value=inactive
compound="C#CC(C)N(C)C(=O)Nc1ccc(Cl)cc1 (configuration not stated)" experimental_endpoint="cytotoxicity increase" measured_value=inactive
compound=COc1ccc(S(=O)(=O)N2c3ccc(Cl)cc3[C@@](O)(c3ccccc3Cl)[C@H]2C(=O)N2CCC[C@@H]2C(N)=O)cc1OC experimental_endpoint="cytotoxicity increase" measured_value=inactive
compound=CC(C)CCCCOC(=O)c1ccccc1C(=O)OCCCCC(C)C experimental_endpoint="cytotoxicity increase" measured_value=inactive
compound=CCc1ccc(C=O)cc1 experimental_endpoint="cytotoxicity increase" measured_value=inactive

For each of the items listed, what is its cytotoxicity increase?
1. Cc1ccc2c(c1)OCC(=O)CO2
2. CC(C)(C)c1nnc(NS(=O)(=O)c2ccc(N)cc2)s1
3. CCCCNc1ccc(C(=O)OCCN(C)C)cc1

["inactive", "inactive", "inactive"]

* * *

- Assayed System: Thyrotropin receptor (Homo sapiens)
- Assay Info: qHTS assay to identify small molecule antagonists of the thyroid stimulating hormone receptor (TSHR) signaling pathway (AID 1259385); further: on the % scale 0 is the no-effect control and ±100 the full control effect; nearly all actives have a fitted effect of over 20% in size
- Experimental Context: TSHR-HEK293 cAMP HTRF, TSH-stimulated antagonist mode; series mostly up to 92.4 µM
Records with an inconclusive call do not appear. Calls of active or inactive are those of the source. The call rests on the fitted dose curve.
Experimental Endpoint: activity change, negative = inhibition

molecular_string=Cc1nc2n(c(=O)c1CCN1CCC(c3noc4cc(F)ccc34)CC1)CCC[C@H]2O measured_value="-7.26% [at 19 µM] (inactive)"
molecular_string=CC(=O)Nc1ccc(S(=O)(=O)Nc2ccc([N+](=O)[O-])cc2)cc1 measured_value=inactive
molecular_string=O=S(O)(O)=S measured_value="2.15% [at 8.39 µM] (inactive)"
molecular_string=Nc1nnc(-c2cccc(Cl)c2Cl)c(N)n1 measured_value=inactive
molecular_string=CCOC(=O)[C@H](CCc1ccccc1)N[C@@H](C)C(=O)N1C(=O)N(C)C[C@H]1C(=O)O measured_value=inactive
molecular_string=Cc1ccc(C=O)cc1C measured_value=inactive

Next:
Please give the measured activity change, negative = inhibition for this compound: Oc1ccccc1-c1nnco1 inactive

* * *

- Assay Info: qHTS assay to identify small molecule agonists of the sonic hedgehog signaling (Shh) pathway (AID 1259368);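 further: NIH/3T3-derived 3T3Gli1-Luc cells carrying a stable Gli1-driven firefly luciferase reporter; on the % scale 0 is the no-effect control and ±100 the full control effect; nearly all actives have a fitted effect of over 15% in size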
- Experimental Context: NIH/3T3 Gli1-Luc reporter, luciferase, 24 h, active compounds read high; series mostly up to 92.4 µM
Active and inactive are the calls of the source. Calls follow the shape of the full dose curve.
Experimental Endpoint: activity change

Answered examples (4):
compound=CNC(=O)[C@H]1O[C@@H](n2cnc3c(NCc4cc(Cl)ccc4OCc4cc(C)no4)ncnc32)[C@H](O)[C@@H]1N measured_value=inactive
compound=Cc1ccsc1/C=C/C1=NCCCN1C measured_value=inactive
compound=CCCCCCCCCCCCCC measured_value=inactive
compound=COc1ccc2c(c1OC)C(=O)O[C@@H]2[C@H]1c2c(cc3c(c2OC)OCO3)CCN1C measured_value=inactive

For each of the items listed, what is its activity change?
1. O=C1O[C@@H]2[C@@H](O)[C@H](O)O[C@@H]2[C@H]1O
2. C[C@@H]1O[C@@H](O[C@@H]2[C@@H](O)[C@H](OCCc3ccc(O)c(O)c3)O[C@H](CO[C@@H]3O[C@H](CO)[C@@H](O)[C@H](O)[C@H]3O)[C@H]2OC(=O)/C=C/c2ccc(O)c(O)c2)[C@H](O)[C@H](O)[C@H]1O
3. CCCC/C=C/C=C\C=O
4. Nc1ncnc(Nc2ccccc2)n1
5. Cc1ccc2c(c1)OCC(=O)CO2

["inactive", "inactive", "inactive", "inactive", "inactive"]

* * *

- Assay Info: Caspase-3/7 induction in HepG2 cells by small molecules, qHTS cell viability counter screen (AID 1346981); further: on the % scale 0 is the no-effect control and ±100 the full control effect; nearly all actives have a fitted effect of over 30% in size
- Experimental Context: CellTiter-Fluor fluorescence, 17 h; series mostly up to 92.4 µM
Inconclusive results are not listed. Calls of active or inactive are those of the source. Calls follow the shape of the dose curve; as a rule, active = well fitted cell-killing curve with a large enough effect in the repeat runs; inconclusive = weak or mixed curves, or effect the other way; inactive = flat fitted curve, though single readings scatter.
Experimental Endpoint: activity change, negative = cytotoxicity

Answered examples (5):
compound=C[C@@H](O)[C@H]1C(=O)N2C(C(=O)O)=C(SCCN=CN)C[C@H]12 measured_value=inactive
compound=COc1ccc2nc(SCc3ncc(C)c(OC)c3C)[nH]c2c1 measured_value=inactive
compound="COP(=O)(OC)OC(c1ccc(Cl)cc1)P(=O)(OC)OC (stereo not drawn)" measured_value=inactive
compound=FC(F)(F)c1ccccc1-n1ccnc1 measured_value=inactive
compound="O=C(OCC(O)CO)c1ccccc1Nc1ccnc2c(C(F)(F)F)cccc12 (stereo not drawn)" measured_value=inactive

For each of the items listed, what is its activity change, negative = cytotoxicity?
1. CCCC(=O)C(C)=O
2. CC/C=C\CC1=C(C)CCC1=O
3. OCCCCC(O)CO (stereo not drawn)
4. COC(=O)CCCCCCCC(=O)OC
5. CC(=O)CCCCn1c(=O)c2c(ncn2C)n(C)c1=O
6. N#Cc1ccc(C(=O)O)cc1
7. CC(N)C(=O)OC(C)(C)Cc1ccc(Cl)cc1 (stereo not drawn)

inactive
inactive
inactive
inactive
inactive
inactive
inactive

For each of the items listed, what is its activity change, negative = cytotoxicity?
1. COc1cc(N)ccc1C
2. Cc1nc2n(c(=O)c1CCN1CCC(c3noc4cc(F)ccc34)CC1)CCC[C@H]2O
3. CC(C)C(=O)OCCc1ccccc1

inactive
0.92% [at 19 µM] (inactive)
inactive

For each of the items listed, what is its activity change, negative = cytotoxicity?
1. C[C@H](N)[C@H](O)c1cccc(O)c1
2. COc1cc(C(=S)N2CCOCC2)cc(OC)c1OC
3. O=S(O)(O)=S
4. O=S(=O)(O)CCN1CCN(CCO)CC1
5. COc1cc(NS(=O)(=O)c2ccc(N)cc2)nc(OC)n1
6. CCOC(=O)CC(=O)c1ccccc1
7. CN(C)c1ccc(C=O)cc1
8. Brc1ccc(-c2ccccc2)cc1

1. inactive
2. inactive
3. -0.702% [at 8.39 µM] (inactive)
4. inactive
5. inactive
6. inactive
7. inactive
8. inactive

For each of the items listed, what is its activity change, negative = cytotoxicity?
1. O=C1c2cccc3c2[C@H](CCC3)CN1[C@@H]1CN2CCC1CC2
2. CC[C@H](C)C(=O)O[C@H]1C[C@H](O)C=C2C=C[C@H](C)[C@H](CC[C@@H](O)C[C@@H](O)CC(=O)O)[C@H]21
3. CC1COc2ccccc2N1 (stereo not drawn)
4. NCCN1CCOCC1
5. CCCC/C=C/C=C\C=O

1. inactive
2. inactive
3. inactive
4. inactive
5. inactive

* * *

- Assay Info: qHTS RealTime-Glo MT Cell Viability Assay in HEK293 cells - 8 hour (AID 1224887); further: top concentration of the series differs between compounds; on the % scale 0 is the no-effect control and ±100 the full control effect; nearly all actives have a fitted effect of over 50% in size
- Experimental Context: RealTime-Glo luminescence; series mostly up to 76.8 µM
Inconclusive results are not listed. Calls of active or inactive are those of the source. Calls come from the whole dose curve; as a rule, active = well fitted cell-killing curve with a large enough effect in the repeat runs; inconclusive = weak or mixed curves, or effect the other way; inactive = flat fitted curve, though single readings scatter.
Please reply with one of these outcomes: active, inactive

compound=NS(=O)(=O)c1ccc(NC(=O)CCC(=O)O)cc1 answer_label=inactive
compound=CCN(C)C(=O)Oc1cccc([C@H](C)N(C)C)c1 answer_label=inactive
compound=CC(=O)N[C@@H](CCC(=O)O)C(=O)O answer_label=inactive

Outcome? NCCS inactive

Outcome? CC(=O)/C=C/C1C(C)=CCC(C)C1(C)C (stereo not given) inactive

* * *

- Assayed System: Peroxisome proliferator-activated receptor delta (Homo sapiens) (UniProt Q03181)
- Sequence (Q03181 whole entry, looked up): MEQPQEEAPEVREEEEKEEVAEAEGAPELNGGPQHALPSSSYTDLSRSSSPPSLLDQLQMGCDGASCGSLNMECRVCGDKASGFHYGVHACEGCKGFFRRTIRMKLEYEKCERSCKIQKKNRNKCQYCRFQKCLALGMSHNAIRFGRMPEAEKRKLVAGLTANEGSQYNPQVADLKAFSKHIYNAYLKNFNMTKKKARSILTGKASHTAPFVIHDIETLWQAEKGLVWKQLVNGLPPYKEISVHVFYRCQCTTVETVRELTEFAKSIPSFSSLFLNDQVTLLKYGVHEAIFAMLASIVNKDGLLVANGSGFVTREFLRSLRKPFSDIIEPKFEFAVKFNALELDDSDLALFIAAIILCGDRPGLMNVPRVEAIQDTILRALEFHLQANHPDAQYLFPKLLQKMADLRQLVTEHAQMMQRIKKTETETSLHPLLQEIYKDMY
- Assay Info: qHTS assay to identify small molecule antagonists of the peroxisome proliferator-activated receptor delta (PPARd) signaling pathway (AID 743215);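 further: cells stimulated with agonist L165041 at 300 nM final during compound exposure; on the % scale 0 is the no-effect control and ±100 the full control effect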
- Experimental Context: HEK293H PPARd-UAS-bla, beta-lactamase FRET ratio, antagonist, 17 h; series mostly up to 62 µM
Results filed as inconclusive are left out. Activity calls are given as the source filed them. Calls follow the shape of the dose curve; as a rule, active = well fitted inhibition curve with a large enough effect in the signal ratio in the repeat runs (not every such curve was filed as active); inconclusive = weak or mixed curves, or effect the other way; inactive = no such curve, though single readings can be large or run the other way; the % refers to the signal ratio.
Experimental Endpoint: ratio activity, negative = inhibition

Answered examples (4):
compound=CCOC(=O)/C=C/c1ccccc1 experimental_endpoint="ratio activity, negative = inhibition" measured_value=inactive
compound=COc1ccc(-c2cc(=O)c3c(O)cc(O[C@@H]4O[C@H](CO[C@@H]5O[C@@H](C)[C@H](O)[C@@H](O)[C@H]5O)[C@@H](O)[C@H](O)[C@H]4O)cc3o2)cc1O experimental_endpoint="ratio activity, negative = inhibition" measured_value=inactive
compound=Cc1ccc2ccc(Cl)cc2n1 experimental_endpoint="ratio activity, negative = inhibition" measured_value=inactive
compound=CC(=O)CCCCn1c(=O)c2c(ncn2C)n(C)c1=O experimental_endpoint="ratio activity, negative = inhibition" measured_value=inactive

Next:
What reported ratio activity, negative = inhibition corresponds to COC(=O)C1CC(=O)C(C(=O)OC)CC1=O (stereo not given) on Peroxisome proliferator-activated receptor delta (Homo sapiens) (UniProt Q03181)? -19.7% [at 6.26 µM] (inactive)

Reference for the values: PubChem BioAssay (Tox21)
